Assay: Toxicokinetics after escalating intravenous doses of CKLP1 in beagles
Assay type: in vivo, beagle dog
Settings: male, beagle, dog, in vivo, iv, 0.5 mg/kg
Method: Two beagles (one male and one female) were intravenously injected with escalating doses of CKPL1 (0.05 mg/kg, 0.5 mg/kg, 1.5 mg/kg, 3 mg/kg, and 5 mg/kg) to assess the toxicity of CKLP1. […] The following parameters and endpoints were evaluated: mortality, clinical observations, body and organ weights, and food consumption. […] Toxicokinetics (TK) were determined based on the individual exposures for each animal on each sampled study day (days 1, 3, 8, 10, and 14). […]
readout-name: AUC(0-t) (ng·h/mL)
One number for each entry, in ng·h/mL.

// AUC(0-t) value for CC1(C)Oc2ccc(C#N)cc2[C@@H](N2CCCC2=O)[C@@H]1OP(=O)(O)O [CKLP1] : 14300

====

Give measured Tmax for each item. Keep answers brief.
Experiment: Toxicokinetics after escalating intravenous doses of CKLP1 in beagles
Format: in vivo, beagle dog
Conditions: female, beagle, dog, in vivo, iv, 1.5 mg/kg

> print(dat)
                                   compound  result
1  CC1(C)Oc2ccc(C#N)cc2[C@@H](N2CCCC2=O)[C@@H]1OP(=O)(O)O     1 h

Query CC1(C)Oc2ccc(C#N)cc2[C@@H](N2CCCC2=O)[C@@H]1O [Levcromakalim, levcromakalim, reference compound] yields Tmax of 3.00 h

====

Assay: Plasma pharmacokinetics of CKLP1 and levcromakalim after topical dosing in hound dogs
Type: in vivo, hound dog
Details: hound, dog, plasma, topical or ocular, 10 mM, levcromakalim after topical 10 mM CKLP1 once daily; Day 1
Experimental: To assess the pharmacokinetic parameters, hound dogs (n=3) were treated with 50 μL topical ocular administration of 10 mM CKLP1 or vehicle (PBS) (n=2) in both eyes, once daily for eight days. […] Immediately prior to analysis, tissues were thawed and their weight was measured. […] Data were acquired and analyzed using Waters MassLynx v4.1 software.
readout-name: half-life
The reply must contain the numeric value and, after it, the unit.

Looking up CC1(C)Oc2ccc(C#N)cc2[C@@H](N2CCCC2=O)[C@@H]1O [Levcromakalim, levcromakalim, reference compound] , I found its half-life recorded as 1.24 h

====

Exercise: state measured Tmax for each of the molecules provided.
Experiment: Toxicokinetics after escalating intravenous doses of CKLP1 in beagles
Assay type: in vivo, beagle dog
Conditions: female, beagle, dog, in vivo, iv, 3 mg/kg
Numbers only, in h.

> print(dat)
                                   molecule  numeric.result
1  CC1(C)Oc2ccc(C#N)cc2[C@@H](N2CCCC2=O)[C@@H]1OP(=O)(O)O               1

Continue with the next molecule.
CC1(C)Oc2ccc(C#N)cc2[C@@H](N2CCCC2=O)[C@@H]1O [Levcromakalim, levcromakalim, reference compound] yielded Tmax of 6.00

====

Assay: Plasma pharmacokinetics, 28-day topical ophthalmic dosing in beagle dogs
Conditions: female, beagle, dog, in vivo, topical or ocular, 0.27 mg/kg, Cmax
readout-name: Cmax (ng/mL)
Give bare numbers, in ng/mL.

Input CC1(C)Oc2ccc(C#N)cc2[C@@H](N2CCCC2=O)[C@@H]1OP(=O)(O)O [CKLP1] . Output Cmax: 55.5

====

Assay: Toxicokinetics after escalating intravenous doses of CKLP1 in beagles
Format: in vivo, beagle dog
Conditions: female, beagle, dog, in vivo, iv, 0.05 mg/kg
readout-name: half-life (h)
Give bare numbers, in h.

Note to self: half-life recorded for `CC1(C)Oc2ccc(C#N)cc2[C@@H](N2CCCC2=O)[C@@H]1OP(=O)(O)O` was 3.26

====

Assay: Plasma pharmacokinetics, 28-day topical ophthalmic dosing in beagle dogs
Details: male, beagle, dog, in vivo, topical or ocular, 0.41 mg/kg
Method: In the study, dogs (3 males and 3 females) received bilateral daily topical administration of 40 μL/eye of 2.0%, 4.0%, or 8.0% as measured in mg/mL (equivalent to 0.8, 1.6, or 3.2 mg CKLP1 per eye) of CKLP1 in phosphate buffered saline. […]
readout-name: Tmax (h)
Answers are plain numbers, in h.

Documented Tmax of `CC1(C)Oc2ccc(C#N)cc2[C@@H](N2CCCC2=O)[C@@H]1OP(=O)(O)O` : 1

====

Assay: Plasma pharmacokinetics of CKLP1 and levcromakalim after topical dosing in hound dogs
Type: in vivo, hound dog
Details: hound, dog, plasma, topical or ocular, 10 mM, topical 10 mM CKLP1; read-out: time of maximum concentration (Tmax) of CKLP1
readout-name: Tmax

Measured Tmax, CC1(C)Oc2ccc(C#N)cc2[C@@H](N2CCCC2=O)[C@@H]1OP(=O)(O)O [CKLP1] : ≤ 1 h

====

Test: Plasma pharmacokinetics of CKLP1 and levcromakalim after topical dosing in hound dogs
Type: in vivo, hound dog
Details: hound, dog, plasma, topical or ocular, 10 mM, CKLP1; topical 10 mM CKLP1 once daily; Day 4
readout-name: half-life

half-life for CC1(C)Oc2ccc(C#N)cc2[C@@H](N2CCCC2=O)[C@@H]1OP(=O)(O)O [CKLP1] is 7.53 h

====

Assay: Plasma pharmacokinetics of CKLP1 and levcromakalim after topical dosing in hound dogs
Type: in vivo, hound dog
Details: hound, dog, plasma, topical or ocular, 10 mM CKLP1, 50 µL in each of both eyes, levcromakalim after topical 10 mM CKLP1 once daily; Day 1
readout-name: AUC(0-t) (ng·h/mL)
Give bare numbers, in ng·h/mL.

Note to self: AUC(0-t) recorded for CC1(C)Oc2ccc(C#N)cc2[C@@H](N2CCCC2=O)[C@@H]1O [Levcromakalim, levcromakalim, reference compound] was 5.09

====

Experiment: Toxicokinetics after escalating intravenous doses of CKLP1 in beagles
Type: in vivo, beagle dog
Conditions: both sexes, beagle, dog, in vivo; CKLP1; IV 3 mg/kg; read-out: AUCTlast at MTD, sex-combined
Method: Two beagles (one male and one female) were intravenously injected with escalating doses of CKPL1 (0.05 mg/kg, 0.5 mg/kg, 1.5 mg/kg, 3 mg/kg, and 5 mg/kg) to assess the toxicity of CKLP1. […] The following parameters and endpoints were evaluated: mortality, clinical observations, body and organ weights, and food consumption. […] Toxicokinetics (TK) were determined based on the individual exposures for each animal on each sampled study day (days 1, 3, 8, 10, and 14). […]
readout-name: AUC(0-t) (µg·h/mL)
One number for each entry, in µg·h/mL.

// recorded AUC(0-t) for `CC1(C)Oc2ccc(C#N)cc2[C@@H](N2CCCC2=O)[C@@H]1OP(=O)(O)O` : 107

====

Experiment: Plasma pharmacokinetics, 28-day topical ophthalmic dosing in beagle dogs
Conditions: male, beagle, dog, in vivo, topical or ocular, 8 %; day 28; males; read-out: mean Cmax at NOAEL
readout-name: Cmax
Note: state the figure and append the unit.

The recorded Cmax for CC1(C)Oc2ccc(C#N)cc2[C@@H](N2CCCC2=O)[C@@H]1OP(=O)(O)O [CKLP1] is 147 ng/mL

====

Assay: Concentration of CKLP1 and levcromakalim in ocular and systemic tissues of hound dogs
Assay type: in vivo, hound dog
Conditions: hound, dog, cornea; 23 hours after last dose; topical 10 mM CKLP1 12-13 days; two animals; read-out: concentration in cornea
Can you tell me concentration at 23 h for the items I'm about to list?
Give bare numbers, in ng/g.

> print(dat)
                                   molecule  numeric.result
1  CC1(C)Oc2ccc(C#N)cc2[C@@H](N2CCCC2=O)[C@@H]1O [Levcromakalim, levcromakalim, reference compound]             1.4

Turning to the following molecule.
Kindly note the recorded concentration at 23 h for CC1(C)Oc2ccc(C#N)cc2[C@@H](N2CCCC2=O)[C@@H]1OP(=O)(O)O [CKLP1] , which is 31.3

====

Assay: Toxicokinetics after escalating intravenous doses of CKLP1 in beagles
Assay type: in vivo, beagle dog
Conditions: female, beagle, dog, in vivo, iv, 1.5 mg/kg
Description: Two beagles (one male and one female) were intravenously injected with escalating doses of CKPL1 (0.05 mg/kg, 0.5 mg/kg, 1.5 mg/kg, 3 mg/kg, and 5 mg/kg) to assess the toxicity of CKLP1. […] The following parameters and endpoints were evaluated: mortality, clinical observations, body and organ weights, and food consumption. […] Toxicokinetics (TK) were determined based on the individual exposures for each animal on each sampled study day (days 1, 3, 8, 10, and 14). […]
readout-name: Vd

Input `CC1(C)Oc2ccc(C#N)cc2[C@@H](N2CCCC2=O)[C@@H]1OP(=O)(O)O` . Output Vd: 0.162 L/kg

====

Experiment: Toxicokinetics after escalating intravenous doses of CKLP1 in beagles
Assay type: in vivo, beagle dog
Conditions: both sexes, beagle, dog, in vivo, iv, 3 mg/kg; read-out: AUCTlast at MTD, sex-combined
readout-name: AUC(0-t) (ng·h/mL)
Give bare numbers, in ng·h/mL.

Record CC1(C)Oc2ccc(C#N)cc2[C@@H](N2CCCC2=O)[C@@H]1O [Levcromakalim, levcromakalim, reference compound] , field AUC(0-t): 431

These entries and their values trace back to patent US20220387457A1.
